# system-tested: WT-TTR (Homo sapiens)
# Construct: made in house
# assay-text: Stagnant acid-mediated TTR aggregation (fibril formation) assay, turbidity at 340 nm
# Assay type: biochemical
# run-parameters: 72 h, biphenyl ether 50 μM, WT-TTR 7.2 μM; read-out: % FF at 50 μM
Reported remaining activity at 50 µM values are given for each entry in this list.

{"smiles-input": "O=C(O)c1ccc(Oc2ccc(Cl)cc2Cl)c(O)c1", "result-units": "%", "remaining activity at 50 µM": 0}
{"smiles-input": "COc1cc(C(=O)O)ccc1Oc1ccc(Cl)cc1Cl", "result-units": "%", "remaining activity at 50 µM": 0}
{"smiles-input": "O=C(O)c1ccc(Oc2ccc([N+](=O)[O-])cc2[N+](=O)[O-])c(O)c1", "result-units": "%", "remaining activity at 50 µM": 75}

###

# system-tested: WT-TTR (Homo sapiens, UniProt P02766)
# Construct: made in house
# assay-text: Stagnant acid-mediated TTR aggregation (fibril formation) assay, turbidity at 340 nm
# Format: biochemical
# run-parameters: 72 h, pH 4.4, compound 100 μM, WT-TTR 7.2 μM, pH 4.4, 37° C.; read-out: % FF
# Experimental: Stagnant Acid-Mediated TTR Aggregation Assay. After 1 h, the samples were diluted with 0.5 ml of 200 mM sodium acetate buffer containing 100 mM KCl and 1 mM EDTA. […] The extent of aggregation was probed by turbidity measurements at 340 nm using Tecan GENios microplate reader. […] The IC50 was determined by plotting mean of % inhibition vs log and fitted to sigmoid equation: […]
readout-kind: remaining activity at 100 µM (%)

{"smiles-input": "COc1ccccc1NC(=S)N(CCCN1CCCCCC1)Cc1cccs1", "observed": 104}
{"smiles-input": "O=C1/C(=C\\c2ccc(-c3ccc(Cl)cc3)o2)SC(=S)N1c1cccc(Cl)c1", "observed": 107}
{"smiles-input": "Oc1ccc(Nc2nc(-c3ccc(Cl)cc3)nc3ccccc23)cc1", "observed": 96}

Taken from patent US20100190832A1.
